# testedOn: recombinant CSN^ΔCSNAP complex (UniProt Q13098 1-491; Q9UNS2 1-423; Q92905 1-334; Q99627 2-209)
# testDetails: SPR
Where no end group is shown, it is not given here.
property: koff (s⁻¹)
Respond with the bare value in s⁻¹.

binder: DFFNDFEDLFDDDDIQ-biotin [16AA C-CSNAP peptide, C-terminally biotinylated]
property: koff
measurement: 0.0014
//
binder: full-length CSNAP, C-terminally biotinylated (natural protein) MKPAVDEMFPEGAGPYVDLDEAGGSTGLLMDLAANEKAVHADFFNDFEDLFDDDDIQ-biotin
property: koff
measurement: 0.00016
//
binder: EFFNDFEDLFDDDDIQ-biotin [D42E C-CSNAP peptide, C-terminally biotinylated]
property: koff
measurement: 0.0027

Shifting focus to the binder that follows.
Identify the reported koff for the following entry. AVHADFFNDFEDLFDDDDIQ-biotin [20AA C-CSNAP peptide, C-terminally biotinylated]
0.001
